Test system: UACC-62
methodSummary: NCI tumour cell line growth inhibition, 48 h
Activity calls are given as the source filed them. Rule as the data show it: active = GI50 up to about 1.1 µM and inactive = higher.
experimentalEndpoint: GI50

{"compound": "CC1C[C@]2(C[C@@H](C)C(=O)O2)O[C@@H]2CC3(C)[C@@H]4CCC5C(C)(C)OC(=O)C[C@H]6OO[C@]4(CC[C@]3(C)C12)CC56O (stereo not given in full)", "experimentalEndpoint": "GI50", "resultValue": "> 100 µM (inactive)"}
{"compound": "N=C(Cc1ccccc1)NCC(=O)O", "experimentalEndpoint": "GI50", "resultValue": "> 100 µM (inactive)"}
{"compound": "Cc1sc(Nc2ccc(Nc3nc(-c4ccccc4)c(C)s3)cc2)nc1-c1ccccc1", "experimentalEndpoint": "GI50", "resultValue": "54.3 µM (inactive)"}
{"compound": "CCCCCN(CCCCC)CC(C)(C)C(O)c1ccc(OC)c2ccccc12 (stereo not given)", "experimentalEndpoint": "GI50", "resultValue": "12.5 µM (inactive)"}
{"compound": "CCCCCCCCCCCCCC[S+](C)C", "experimentalEndpoint": "GI50", "resultValue": "2.22 µM (inactive)"}

Entry source: ChEMBL document CHEMBL1201862
